Field: GI50. Provide a value for each of the compounds that follow.
Tested on: BT-549 breast
Test: NCI tumour cell line growth inhibition, 48 h

Answered cases to consult:
Smiles String: Cc1cc2nc3c4cc(Cl)ccc4n(CCN(C)C)c3nc2cc1C
Value Reported: 2.53 µM
//
Smiles String: Clc1ccccc1C(c1ccccc1)(c1ccccc1)n1ccnc1
Value Reported: 2.54 µM
//
Smiles String: COc1cc(C(=O)NC2c3ccccc3-c3ccccc32)c(N)cc1OCc1ccccc1
Value Reported: 17 µM

For every listed record, write down its GI50.
1. O=C(CCN1CCN(c2cnc3ccccc3n2)CC1)c1csc2ccccc12
2. COc1ccc(C(=O)Nc2ncc(Cc3ccc(Cl)cc3)s2)cc1
3. COc1ccc(-c2cc(-c3cc(Cl)ccc3Cl)nc3[nH]c(-c4cc(F)c(Cl)cc4Cl)cc(=O)c23)cc1
4. NC(N)=N/N=C(/c1ccccc1)c1ccc(F)cc1
5. COC1(C(=O)N2Cc3nc(Cl)nc(N[C@H](C)c4cc(N)cc(C(F)(F)F)c4)c3C2)CCOCC1

["14.9 µM", "1 µM", "29.6 µM", "0.551 µM", "12.4 µM"]

Recorded values, source PubChem BioAssay (NCI).
